Target: KRas^G12V (Homo sapiens, UniProt P01116, G12V)
Construct: Biotinylated KRas (corresponding to amino acids 1-169, produced at Accelegan Inc.); biotin (biotinylated); purchased Accelegan Inc
Sequence (P01116 1-169 isoform P01116-2 G12V): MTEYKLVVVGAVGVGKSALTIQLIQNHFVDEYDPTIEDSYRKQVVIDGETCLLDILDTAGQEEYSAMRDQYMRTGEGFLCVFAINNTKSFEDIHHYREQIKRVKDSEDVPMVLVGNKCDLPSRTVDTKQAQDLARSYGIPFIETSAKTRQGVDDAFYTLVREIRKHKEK
Assay Notes: KRas binding assay (TR-FRET tracer displacement), KRas G12V
Here the recorded IC50 is given for each entry.

{"columns": ["Molecule", "IC50"],
 "data": [
  ["CCc1c(F)ccc2cc(O)cc(-c3ncc4c(N5CCC[C@]6(C5)C[C@H](O)C6)nc(OC[C@@]56CCCN5[C@H](COC(=O)N(C)C)CC6)nc4c3F)c12 [Example 712]", "< 2 nM"],
  ["CCc1c(F)ccc2cc(O)cc(-c3ncc4c(N5C[C@@H]6C[C@H](C5)[C@H](O)[C@@H]6O)nc(OC[C@@]56CCCN5C[C@H](F)C6)nc4c3F)c12 [Example 568]", "< 2 nM"],
  ["CCc1c(F)ccc2cc(O)cc(-c3ncc4c(N5CCOC[C@]6(CCO6)C5)nc(OC[C@@]56CCCN5C[C@H](F)C6)nc4c3F)c12 [Example 837]", "< 2 nM"],
  ["O=C1NC(=O)[C@]2(CCCN(c3nc(OC[C@@]45CCCN4C[C@H](F)C5)nc4c(F)c(-c5c(C6CC6)c(Cl)cc6[nH]ncc56)ncc34)C2)N1 [Example 780]", "< 2 nM"],
  ["CCc1c(F)ccc2cc(O)cc(-c3ncc4c(N5C[C@@H]6C[C@H](C5)[C@H](O)C6)nc(OCC56CCCN5C/C(=C/F)C6)nc4c3F)c12 (stereo partly shown) [Example 930]", "< 2 nM"],
  ["CCc1c(F)ccc2cc(O)cc(-c3ncc4c(N5CCCC(C6CCNC6=O)C5)nc(OC[C@@]56CCCN5C[C@H](F)C6)nc4c3F)c12 (single isomer, unassigned) [Example 619]", "21 nM"],
  ["CCc1c(F)ccc2cc(O)cc(-c3ncc4c(N5CC6CCC(C5)C6C)nc(OC[C@@]56CCCN5C[C@H](F)C6)nc4c3F)c12 (stereo partly shown) [Example 862]", "60 nM"],
  ["CCc1c(F)ccc2cc(O)cc(-c3ncc4c(N5CCC6(CNC(=O)OC6)C5)nc(OC[C@@]56CCCN5C[C@H](F)C6)nc4c3F)c12 (stereo partly shown) [Example 598]", "84 nM"],
  ["CN(C)C(=O)c1cc2n(n1)CCCN(c1nc(OCC34CCCN3CCC4)nc3c(F)c(-c4cc(O)cc(Cl)c4C4CC4)ncc13)C2 [Example 744]", "< 2 nM"],
  ["CCc1c(F)ccc2cc(O)cc(-c3ncc4c(N5CC6(CO)CC(C7CCCC7)(C5)C6)nc(OC[C@@]56CCCN5C[C@H](F)C6)nc4c3F)c12 [Example 648]", "6080 nM"],
  ["Oc1cc(-c2ncc3c(N4C[C@@H]5C[C@H](C4)[C@H](O)C5)nc(OC[C@@]45CCCN4C[C@H](F)C5)nc3c2F)c2cc(C(F)(F)F)ccc2c1 [Example 817]", "< 2 nM"],
  ["C[C@@H]1C[C@@H]1c1c(Cl)cc(O)cc1-c1ncc2c(N3CCC[C@@](C)(O)C3)nc(OC[C@@]34CCCN3C/C(=C\\F)C4)nc2c1F [Example 944]", "< 2 nM"],
  ["CCc1c(F)ccc2cc(O)cc(-c3ncc4c(N5C[C@H]6CC[C@@H](C5)[C@@H]6O)nc(OC[C@@]56CCCN5C[C@H](F)C6)nc4c3F)c12 [Example 842]", "< 2 nM"]
]}

# credit: patent US20260015350A1
